The origin of these recorded values is ChEMBL document CHEMBL1158526.

Record type: pIC50 measurement. Applies to: Platelet-derived growth factor receptor alpha (Homo sapiens)
Answers are plain numbers, as −log10 of the molar value.

COc1cc(C2=C(c3c[nH]c4ccc(F)cc34)C(=O)NC2=O)cc(OC)c1OC | 5.74
COc1cc(C2=C(c3c[nH]c4ccc(I)cc34)C(=O)NC2=O)cc(OC)c1OC | 5.88

Alright, here's another compound for you.
Respond only with pIC50 recorded for `COc1cc(C2=C(c3c[nH]c4ccc(Br)cc34)C(=O)NC2=O)cc(OC)c1OC`
5.94

* * *

Record type: pIC50 measurement. Applies to: UniProt P09619
Sequence (P09619 whole entry): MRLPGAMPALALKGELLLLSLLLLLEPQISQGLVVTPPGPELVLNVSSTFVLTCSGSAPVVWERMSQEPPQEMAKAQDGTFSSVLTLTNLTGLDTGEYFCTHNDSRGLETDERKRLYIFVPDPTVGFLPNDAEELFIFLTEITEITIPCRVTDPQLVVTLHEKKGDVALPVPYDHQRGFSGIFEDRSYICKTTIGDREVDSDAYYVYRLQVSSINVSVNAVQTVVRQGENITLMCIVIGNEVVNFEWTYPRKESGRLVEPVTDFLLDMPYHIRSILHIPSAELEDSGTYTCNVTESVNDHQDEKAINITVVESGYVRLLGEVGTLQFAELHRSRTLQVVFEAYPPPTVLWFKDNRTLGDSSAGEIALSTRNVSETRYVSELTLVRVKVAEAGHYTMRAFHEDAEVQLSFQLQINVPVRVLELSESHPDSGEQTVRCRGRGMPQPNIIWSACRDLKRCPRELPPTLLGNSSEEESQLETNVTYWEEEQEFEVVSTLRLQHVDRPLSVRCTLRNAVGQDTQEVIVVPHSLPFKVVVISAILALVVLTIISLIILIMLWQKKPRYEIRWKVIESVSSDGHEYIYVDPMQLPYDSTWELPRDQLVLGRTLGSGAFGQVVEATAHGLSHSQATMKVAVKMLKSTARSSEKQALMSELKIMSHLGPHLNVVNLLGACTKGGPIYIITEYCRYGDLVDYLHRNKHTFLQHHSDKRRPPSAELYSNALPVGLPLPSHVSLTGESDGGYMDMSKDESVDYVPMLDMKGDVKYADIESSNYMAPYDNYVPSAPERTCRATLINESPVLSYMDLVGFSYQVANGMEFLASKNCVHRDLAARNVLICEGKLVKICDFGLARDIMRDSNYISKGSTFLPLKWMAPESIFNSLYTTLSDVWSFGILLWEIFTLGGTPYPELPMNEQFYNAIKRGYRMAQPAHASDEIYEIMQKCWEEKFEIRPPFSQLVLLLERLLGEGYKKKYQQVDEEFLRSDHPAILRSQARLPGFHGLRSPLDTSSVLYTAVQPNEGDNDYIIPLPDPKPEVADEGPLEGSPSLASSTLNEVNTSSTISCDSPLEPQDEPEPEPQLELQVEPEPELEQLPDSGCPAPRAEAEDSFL
One number for each entry, as −log10 of the molar value.

Here are 2 compounds together with their reported answers.
COc1cc(C2=C(c3c[nH]c4ccc(I)cc34)C(=O)NC2=O)cc(OC)c1OC | 6.07
COc1cc(C2=C(c3c[nH]c4ccc(Br)cc34)C(=O)NC2=O)cc(OC)c1OC | 6.05

Alright, here's another compound for you.
Respond only with pIC50 recorded for `COc1cc(C2=C(c3c[nH]c4ccc(F)cc34)C(=O)NC2=O)cc(OC)c1OC`
5.57

* * *

- Experiment: Metabolic stability in mouse liver microsome assessed as intact compound at 2 to 3 mCi after 30 mins by RP-HPLC
- Format: ADME
- Condition Info: liver microsomes, read-out: Stability
Recorded Endpoint: remaining at 0.5 h (%)
One number for each entry, in %.

Respond only with remaining at 0.5 h recorded for `COc1cc(C2=C(c3c[nH]c4ccccc34)C(=O)NC2=O)cc(OC)c1O[11CH3]`
25

* * *

- Experiment: Metabolic stability in mouse liver microsome assessed as intact compound at 2 to 3 mCi after 15 mins by RP-HPLC
- Type: ADME
- Condition Info: liver microsomes, read-out: Stability
Recorded Endpoint: remaining at 0.25 h (%)
One number for each entry, in %.

Respond only with remaining at 0.25 h recorded for `COc1cc(C2=C(c3c[nH]c4ccccc34)C(=O)NC2=O)cc(OC)c1O[11CH3]`
40

* * *

- Experiment: Metabolic stability in mouse liver microsome assessed as intact compound at 2 to 3 mCi after 45 mins by RP-HPLC
- Type: ADME
- Condition Info: liver microsomes, read-out: Stability
Recorded Endpoint: remaining at 0.75 h
The reply should read as a number followed by its unit.

Respond only with remaining at 0.75 h recorded for `COc1cc(C2=C(c3c[nH]c4ccccc34)C(=O)NC2=O)cc(OC)c1O[11CH3]`
16%

* * *

- Target Entity: Epidermal growth factor receptor (Homo sapiens, UniProt P00533)
- Sequence (P00533 whole entry): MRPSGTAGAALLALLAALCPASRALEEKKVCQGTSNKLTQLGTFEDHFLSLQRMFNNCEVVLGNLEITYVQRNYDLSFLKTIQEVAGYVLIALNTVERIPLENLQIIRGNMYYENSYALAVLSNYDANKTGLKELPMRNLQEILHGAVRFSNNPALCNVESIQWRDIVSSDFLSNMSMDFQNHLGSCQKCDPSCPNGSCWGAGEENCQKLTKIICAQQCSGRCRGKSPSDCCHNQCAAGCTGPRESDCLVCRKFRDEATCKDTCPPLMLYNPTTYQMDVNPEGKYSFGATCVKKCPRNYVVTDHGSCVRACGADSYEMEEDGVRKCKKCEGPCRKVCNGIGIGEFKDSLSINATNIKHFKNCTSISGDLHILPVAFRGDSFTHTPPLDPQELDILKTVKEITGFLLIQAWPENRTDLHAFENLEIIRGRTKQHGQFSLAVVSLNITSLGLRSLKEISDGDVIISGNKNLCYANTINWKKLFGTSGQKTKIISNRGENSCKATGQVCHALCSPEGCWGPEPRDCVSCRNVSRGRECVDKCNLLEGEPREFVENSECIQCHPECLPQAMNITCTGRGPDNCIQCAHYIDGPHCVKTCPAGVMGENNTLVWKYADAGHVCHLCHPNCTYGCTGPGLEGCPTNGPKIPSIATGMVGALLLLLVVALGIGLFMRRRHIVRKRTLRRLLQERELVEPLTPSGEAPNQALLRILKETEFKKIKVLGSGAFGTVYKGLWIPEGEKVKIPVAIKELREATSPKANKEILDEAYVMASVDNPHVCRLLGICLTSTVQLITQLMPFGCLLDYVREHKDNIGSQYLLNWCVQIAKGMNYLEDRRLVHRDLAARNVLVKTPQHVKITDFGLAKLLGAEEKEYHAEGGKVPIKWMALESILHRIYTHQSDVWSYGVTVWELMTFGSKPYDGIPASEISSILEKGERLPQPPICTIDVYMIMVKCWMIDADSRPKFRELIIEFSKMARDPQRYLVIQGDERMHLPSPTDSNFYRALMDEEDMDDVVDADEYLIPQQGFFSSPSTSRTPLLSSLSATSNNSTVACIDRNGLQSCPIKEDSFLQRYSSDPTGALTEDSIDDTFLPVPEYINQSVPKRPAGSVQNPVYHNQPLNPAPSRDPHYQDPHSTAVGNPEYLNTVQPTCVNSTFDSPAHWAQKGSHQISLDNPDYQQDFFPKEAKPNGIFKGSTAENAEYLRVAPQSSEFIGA
Recorded Endpoint: pIC50
Give bare numbers, as −log10 of the molar value.

Respond only with pIC50 recorded for `COc1cc(C2=C(c3c[nH]c4ccc(Br)cc34)C(=O)NC2=O)cc(OC)c1OC`
5.24

* * *

- Target Entity: Insulin-like growth factor 1 receptor (Homo sapiens)
- Sequence (P08069 31-736 limits assumed): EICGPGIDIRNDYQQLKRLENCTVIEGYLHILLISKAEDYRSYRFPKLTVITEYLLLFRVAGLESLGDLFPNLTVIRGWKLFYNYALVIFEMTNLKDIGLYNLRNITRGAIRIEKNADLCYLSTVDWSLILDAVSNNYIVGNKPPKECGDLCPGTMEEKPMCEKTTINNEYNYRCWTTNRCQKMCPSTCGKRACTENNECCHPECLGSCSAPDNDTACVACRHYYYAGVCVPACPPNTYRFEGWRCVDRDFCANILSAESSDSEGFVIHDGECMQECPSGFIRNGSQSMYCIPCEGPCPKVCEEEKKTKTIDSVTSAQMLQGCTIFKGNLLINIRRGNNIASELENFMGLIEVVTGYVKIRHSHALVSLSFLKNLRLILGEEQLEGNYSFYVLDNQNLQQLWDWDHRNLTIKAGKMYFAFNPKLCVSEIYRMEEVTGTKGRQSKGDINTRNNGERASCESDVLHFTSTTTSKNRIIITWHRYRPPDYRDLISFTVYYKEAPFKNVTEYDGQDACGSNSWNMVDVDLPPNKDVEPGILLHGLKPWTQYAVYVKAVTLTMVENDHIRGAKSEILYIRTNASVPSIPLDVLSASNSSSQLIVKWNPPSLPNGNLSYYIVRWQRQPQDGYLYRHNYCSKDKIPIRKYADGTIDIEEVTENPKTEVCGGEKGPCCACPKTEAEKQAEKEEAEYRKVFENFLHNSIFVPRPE
- Sequence (P08069 741-1367 limits assumed): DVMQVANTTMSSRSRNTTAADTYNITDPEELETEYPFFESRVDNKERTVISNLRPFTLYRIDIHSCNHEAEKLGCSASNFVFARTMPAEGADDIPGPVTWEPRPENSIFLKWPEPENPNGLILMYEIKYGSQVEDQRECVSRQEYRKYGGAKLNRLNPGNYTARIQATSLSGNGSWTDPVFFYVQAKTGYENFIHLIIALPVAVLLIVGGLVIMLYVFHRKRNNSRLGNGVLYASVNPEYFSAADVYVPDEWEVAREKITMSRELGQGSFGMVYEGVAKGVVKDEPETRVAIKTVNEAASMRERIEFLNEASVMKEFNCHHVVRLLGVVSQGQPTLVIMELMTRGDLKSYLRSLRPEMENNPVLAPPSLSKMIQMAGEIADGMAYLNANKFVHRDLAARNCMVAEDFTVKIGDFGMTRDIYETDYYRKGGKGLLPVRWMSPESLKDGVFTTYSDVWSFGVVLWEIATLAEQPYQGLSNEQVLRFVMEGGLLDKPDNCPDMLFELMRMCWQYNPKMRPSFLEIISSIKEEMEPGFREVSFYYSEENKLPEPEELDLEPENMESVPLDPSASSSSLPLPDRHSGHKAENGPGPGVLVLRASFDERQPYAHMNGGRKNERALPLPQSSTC
I'd appreciate it if you could supply IC50 values for the items below.
Answers are plain numbers, in µM.

Here are 2 molecules together with their reported answers.
COc1cc(C2=C(c3c[nH]c4ccc(Br)cc34)C(=O)NC2=O)cc(OC)c1OC | 4.24
COc1cc(C2=C(c3c[nH]c4ccc(F)cc34)C(=O)NC2=O)cc(OC)c1OC | 8.53

Alright, here's another molecule for you.
Respond only with IC50 recorded for `COc1cc(C2=C(c3c[nH]c4ccc(I)cc34)C(=O)NC2=O)cc(OC)c1OC`
3.2
